System: RXF 393 renal
Assay: NCI-60 one-dose screen, 48 h
Conditions: 10 µM unless noted
Compounds without any hit were thinned out: in the full panel of roughly 83,000, 20% have a hit. The source made the active and inactive calls. The calls were made as follows: active = growth percent below 10; inactive = the rest.
Pick one: 1 (active), 0 (inactive)

Worked set:
| molecule | experimental-system | label-value |
| --- | --- | --- |
| O=C(c1ccc(C(F)(F)F)c(Cl)c1)N(Cc1ccc(Cl)cc1)c1ccc(-c2cc(C(F)(F)F)[nH]n2)c(O)c1 | RXF 393 renal | 1 |
| C/C(CC(=O)NNc1ccc([N+](=O)[O-])cc1)=N\Nc1ccc([N+](=O)[O-])cc1 | RXF 393 renal | 0 |
| COc1ccc(/C=C2\N=C(c3cccnc3)N(c3ccccc3)NC2=O)cc1 | RXF 393 renal | 0 |
| CCOCC(O)(c1ccc(Cl)cc1)c1ccc(Cl)cc1 | RXF 393 renal | 0 |
| C/C=C(\C)C(C(=O)NC1CCCCC1)N(C(=O)C1CCc2cc(F)ccc2O1)c1ccc([N+](=O)[O-])cc1 (stereo not drawn) | RXF 393 renal | 0 |

Task: Query: recorded result category for Cc1ccc(/C=C/C(=N/N=C(N)N)c2ccccc2)cc1 in this test
Result: 1

Task: Query: recorded result category for O=C(Cc1ccc(Nc2ccnc(C(F)(F)F)c2)cc1)N/N=C/c1ccccc1O in this test
Result: 0

Task: Query: recorded result category for CC1(C)C2CCC(O)(C(=O)O)C1C2 (stereo not drawn) in this test
Result: 0

* * *

Test system: MCF7 breast
Assay: NCI-60 one-dose screen, 48 h
Settings: 10 µM unless noted
This is part of a sample that, as a whole, favours compounds with a hit. Of some 83,000 tested, about 20% had one in any assay. Calls of active or inactive are those of the source. How the source made its calls: active means growth percent below 10; inactive means the rest.
Pick one: active, inactive

| compound | label-value |
| --- | --- |
| COc1ccc(C(=O)C(CN(C)C)c2ccccc2)cc1 (stereo not drawn) | active |
| CCOC(=O)C(Nc1ccccc1)C(=O)OCC | inactive |

Task: Query: recorded result category for Fc1[nH]nc2ccc([C@@H]3Nc4ccc5[nH]ncc5c4[C@H]4C5CCC(C5)[C@@H]34)cc12 (stereo partly drawn) in this test
Result: inactive

* * *

Test system: SF-539 CNS
Assay: NCI-60 one-dose screen, 48 h
Conditions: 10 µM unless noted
The panel holds about 83,000 compounds, 20% with a hit somewhere; the sample as a whole holds those more often. Active and inactive are the calls of the source. How the source made its calls: active means growth percent below 10; inactive means the rest.
Pick one: yes (1) (active), no (0) (inactive)

Worked set:
| compound | label-value |
| --- | --- |
| O=C(Nc1ccc2ncnc(Nc3ccc(F)c(Cl)c3)c2c1)c1cccs1 | no (0) |
| CCNS(=O)(=O)c1ccc(C)cc1 | no (0) |
| CCCCCCCCCCCCCCCC1=NCC[N+]1(CCO)CCO | no (0) |

Task: Query: recorded result category for COc1ccc2[nH]c(O)c(/C=c3/ccc4c(c3)N=C(c3ccc(F)cc3)N=4)c2c1 in this test
Result: no (0)

Task: Query: recorded result category for O=C(c1ccccc1)N(CCCCl)C(=O)N(CCCCl)C(=O)c1ccccc1 in this test
Result: no (0)

Task: Query: recorded result category for CC(C)c1[nH]ncc1-c1nc2ccc3[nH]ncc3c2c2c1CCCC2 in this test
Result: no (0)

Task: Query: recorded result category for CCOC(=O)C(Nc1ccccc1)C(=O)OCC in this test
Result: no (0)

Task: Query: recorded result category for Nc1n[nH]c2ccc([C@@H]3Nc4c(F)cc5[nH]ncc5c4[C@H]4C5CCC(C5)[C@@H]34)cc12 (stereo partly drawn) in this test
Result: yes (1)

Task: Query: recorded result category for Cc1nn(-c2ccc(Cl)cc2)c(=O)n1CCN1CCOCC1 in this test
Result: no (0)

Task: Query: recorded result category for O=C(O)Cn1ccc2ccccc21 in this test
Result: no (0)

Task: Query: recorded result category for C#CC[C@@H]1C[C@]2(C)[C@H]3CC[C@@H]4[C@H]5C(C(=C)C)CC[C@]5(C(=O)NCCCN5CCN(CCCN)CC5)CC[C@@]4(C)[C@]3(C)CC[C@H]2C(C)(C)[C@H]1OC(C)=O (stereo partly drawn) in this test
Result: yes (1)

* * *

System: UACC-257 melanoma
Assay: NCI-60 one-dose screen, 48 h
Settings: 10 µM unless noted
About 83,000 compounds went through this panel and 20% of them were active in at least one assay; those are over-represented in the sample as a whole. Activity calls are given as the source filed them. Rule for the calls: active = growth percent below 10; inactive = the rest.
Pick one: 1 (active), -1 (inactive)

| compound | label-value |
| --- | --- |
| COc1ccc(/C=C2\Cc3c(Br)cccc3C2=O)c(OC)c1 | -1 |
| Cc1ccc(/C=C/C(=N/N=C(N)N)c2ccccc2)cc1 | -1 |
| COc1ccc2c(c1)N(CCO)C1=C(C(=O)OC1)C2c1cccc(Br)c1 (stereo unspecified) | -1 |
| COc1cc2c(cc1C)NC(=O)/C2=C\c1c[nH]c2ccccc12 | -1 |

Now for another entry.
Task: Query: recorded result category for CCOc1ccc([C@@H]2[C@@H](Oc3ccccc3)C(=O)N2c2cc(OC)c(OC)c(OC)c2)cc1 in this test
Result: -1

* * *

Test system: K-562 leukemia
Experiment: NCI-60 one-dose screen, 48 h (100 = growth as untreated, 0 = no growth, -100 = all killed)
Conditions: 10 µM unless noted
Compounds without any hit were thinned out: in the full panel of roughly 83,000, 20% have a hit.
assay-readout: growth (%)
Numbers only, in %.

Some solved cases for reference:
| compound | units-label | value-observed |
| --- | --- | --- |
| COc1cccc(NC(=O)c2c(-c3ccccc3)c(-c3ccccc3)n[nH]c2=O)c1 | % | 81.9 |
| COc1cc(NCCCCC(C)N)c2nccc(C)c2c1 (stereo not drawn) | % | 80.4 |

As a next step, examine the compound that follows.
For COc1cc(-c2nc(-c3nc4cc(C(=O)c5ccccc5)ccc4[nH]3)cc3c2[nH]c2ccccc23)cc(OC)c1OC on K-562 leukemia, measured growth was 80.3

* * *

Test system: NCI-H460 lung
Test: NCI-60 one-dose screen, 48 h (100 = growth as untreated, 0 = no growth, -100 = all killed)
Conditions: 10 µM unless noted
About 83,000 compounds went through this panel and 20% of them were active in at least one assay; those are over-represented in the sample as a whole. Calls of active or inactive are those of the source. The calls were made as follows: active = growth percent below 10; inactive = the rest.
Field: growth. Provide a value for each of the molecules that follow.

| molecule | value-observed |
| --- | --- |
| NC(=O)Nc1ccc2ncnc(Nc3cccc(O)c3)c2c1 | 108% (inactive) |
| CCCCN(CCCC)CCC(=O)c1ccc(OC)c2ccccc12 | 109% (inactive) |
| CCOC(=O)c1ccc(NCCC(=O)O)cc1 | 116% (inactive) |
| CC1=C(C(=O)Nc2ccc(F)cc2)C(c2ccccc2)C2=C(CC(C)(C)CC2=O)N1 (stereo not given) | 73% (inactive) |
| O=C(/C=C/c1cc([N+](=O)[O-])ccc1Cl)c1ccccc1 | 97.6% (inactive) |

Give growth for all molecules that follow.
1. O=C1Cc2c([nH]c3ccc([N+](=O)[O-])cc23)-c2ccccc2N1
2. CCCCCCCCCCCCCCCCOc1ccc(S(=O)(=O)N(C)C)cc1[N+](=O)[O-]
3. C=CCn1c(C)nc2cc(Nc3nc(N4CCCC4)nc4nc[nH]c34)ccc21
4. CCCCCCCCCCCCCCCCCC1=NC(C)(C)CN1C(C)(C)CO

Result:
6.76% (active)
118% (inactive)
0.371% (active)
-100% (active)

* * *

Test system: SNB-75 CNS
Assay: NCI-60 one-dose screen, 48 h
Details: 10 µM unless noted
Compounds without any hit were thinned out: in the full panel of roughly 83,000, 20% have a hit. Calls of active or inactive are those of the source. The calls were made as follows: active = growth percent below 10; inactive = the rest.
Pick one: active, inactive

| compound | label-value |
| --- | --- |
| CN(C)CCOc1nc2c3cccnc3cc(-c3cccc(Cl)c3)c2c2ncccc12 | inactive |
| Cc1ccc(C2CC(c3cccs3)=NN2c2ccc(S(N)(=O)=O)cc2)s1 (configuration not stated) | inactive |
| O=NN(CC(=O)NNc1ccccc1)CC(=O)NNc1ccccc1 | inactive |
| COc1cccc2nc(Nc3cccc(NC(=O)c4cc(N5CCOCC5)cc(C(F)(F)F)c4)c3)ccc12 | inactive |
| O=C1C=CC(=O)N1c1cccc(N2C(=O)C=CC2=O)c1 | inactive |
| O=C(Nc1ccc(Br)cc1)Nc1ccccc1Cl | inactive |
| COc1ccc(Nc2ncccc2C(=O)NCc2cn(Cc3cc(OC)cc(OC)c3)nn2)cc1 | inactive |
| CCCc1n(Cc2ccc3ccccc3n2)cc[n+]1Cc1ccc2ccccc2n1 | inactive |

Task: Query: recorded result category for COc1cc(/C=C/c2ccc3c(Br)cc(Br)c(O)c3n2)ccc1O in this test
Result: inactive

Task: Query: recorded result category for CCc1ccc2c(c1)N(CCO)C1=C(C(=O)OC1)C2c1cccc(Cl)c1 (configuration not stated) in this test
Result: inactive
